Tested on: SK-OV-3 ovarian
Experiment: NCI-60 one-dose screen, 48 h (100 = growth as untreated, 0 = no growth, -100 = all killed)
Conditions: 10 µM unless noted
About 83,000 compounds went through this panel and 20% of them were active in at least one assay; those are over-represented in the sample as a whole. Activity calls are given as the source filed them. The calls were made as follows: active = growth percent below 10; inactive = the rest.
Entries and their growth
MEASUREMENT NAME: growth

MOLECULE	MEASUREMENT NAME	DATA VALUE
COc1cc2c(cc1OC)-c1ccc3cc4c(cc3c1N(CCN(C)C)C2)OCO4	growth	-21.2% (active)
COc1ccc(CN2C(=O)/C(=C\c3cc(OC)c(OC)c(OC)c3)c3ccccc32)cc1	growth	34% (inactive)
CCN(CC)CCCC(C)NCc1ccccc1 (stereo unspecified)	growth	118% (inactive)
CNC(=O)c1cc(Oc2ccc3nc(Nc4cc(Cl)cc(Cl)c4)ccc3c2)ccn1	growth	86.2% (inactive)
CC12CC(C#N)CCC1O2 (stereo unspecified)	growth	115% (inactive)
O=S(=O)(Cc1ccccc1)c1nc2ccccc2s1	growth	101% (inactive)
CC(C)c1ccc(C(=O)OC(=O)c2ccc(C(C)C)cc2)cc1	growth	110% (inactive)
C=CCO[C@H]1CO[C@H]2[C@@H]1OC[C@@H]2Oc1ccc(Nc2ccnc(Nc3ccc(O[C@H]4CO[C@H]5[C@@H]4OC[C@@H]5OCC=C)c(Cl)c3)n2)cc1Cl	growth	115% (inactive)
Cc1cc2c(F)c(Oc3ncnc(Nc4ccc(N5C[C@@H](C)N[C@@H](C)C5)cc4)c3C#N)cc(F)c2[nH]1	growth	92.8% (inactive)
COc1ccc(-n2ncn(CCCCCCn3cnn(-c4ccc(OC)cc4)c3=O)c2=O)cc1	growth	99.5% (inactive)
COc1cc(/C=C/C(=O)c2cccc(-n3cc(-c4ccccc4)[nH]c3=O)c2)cc(OC)c1OC	growth	4.74% (active)
COc1ccc2cc(-c3ccc(C(=O)NN)c(C)n3)ccc2c1	growth	95.7% (inactive)
COc1cc(-c2cc(-c3ccc(Nc4nc(Nc5ccccc5)nc(Nc5ccc(Cl)cc5)n4)cc3)nc(N)n2)cc(OC)c1OC	growth	113% (inactive)
O=C1C=CC(=Nc2cc(Br)c(O)c(Br)c2)C=C1	growth	117% (inactive)
Cc1cnc(Nc2ccc(N3CCN(C)CC3)cc2)nc1Nc1ccc(Cl)c(NS(=O)(=O)C(C)(C)C)c1	growth	-6.97% (active)
CC(=O)Nc1ccc(C(=O)/C=C/c2ccccc2)cc1	growth	105% (inactive)
O=C(Nc1ccccc1)c1sc(-c2cccc(C(F)(F)F)c2)cc1O	growth	74.6% (inactive)
Cc1c(Cl)cccc1NS(=O)(=O)c1ccccc1	growth	105% (inactive)
CSc1ncc(C)c(Nc2ccc(Cl)cc2)n1	growth	126% (inactive)
O=[N+]([O-])c1ccc(-c2cc3c(Nc4ccc(Cl)c(C(F)(F)F)c4)ncnc3s2)cc1	growth	-11.5% (active)
Cc1ccc(NC(=O)C(Cl)Cl)cc1	growth	105% (inactive)

###

System: SK-MEL-28 melanoma
Experiment: NCI-60 one-dose screen, 48 h
Details: 10 µM unless noted
This is part of a sample that, as a whole, favours compounds with a hit. Of some 83,000 tested, about 20% had one in any assay. Activity calls are given as the source filed them. The calls were made as follows: active = growth percent below 10; inactive = the rest.
Outcome codes: active, inactive

COMPOUND	CLASS
COc1cc2oc(-c3cccc(C(=O)Nc4ccc(C#N)cc4)c3)cc(=O)c2c(O)c1OC	inactive
Cc1c(C)c2c(c(C)c1NC(=O)/C=C\C(=O)O)CCC(C)(CCCC(C)CCCC(C)CCCC(C)C)O2 (stereo not given)	active
CC(C)OC(=O)OCOP(=O)(OCOC(=O)OC(C)C)C1CCCN(O)C1=O (stereo not given)	inactive
COc1ccc(N(C)c2nc(Cl)nc3cnn(C)c23)cc1	inactive
COc1cc2c(cc1OC)-c1ccc3cc4c(cc3c1N(CCN(C)C)C2)OCO4	inactive
CN(C)CCn1cc(-c2ccc3c(Nc4ccc(CC(=O)Nc5cccc(F)c5)cc4)ncnc3c2)cn1	active
Nc1c(C(=O)Nc2ccccc2)sc2nc3c(cc12)CCCCCC3	inactive
COc1ccc(OC)c(Nc2nc3nonc3nc2Nc2cccc(Br)c2)c1	inactive
Cc1cnc(Nc2ccc(N3CCN(C)CC3)cc2)nc1Nc1ccc(Cl)c(NS(=O)(=O)C(C)(C)C)c1	inactive
O=C1Nc2ccccc2/C1=N/N=C/c1ccsc1	inactive
COc1ccc(/C(C)=C(\c2ccc(Cl)cc2)c2ccc(OCCN(C)C)cc2)cc1F	inactive
CC(C)OCCCNCC(=O)Nc1ccc(S(=O)(=O)c2ccc(NC(=O)CNCCCOC(C)C)cc2)cc1	inactive
COC1=CC(c2ccc[nH]2)=N/C1=C\c1[nH]c(C)c(C(=O)OCCn2cc(CCC[C@@H]3Cc4cc(O)ccc4C4CC[C@]5(C)[C@@H](O)CC[C@H]5C43)nn2)c1C (stereo not given in full)	inactive
NC(=Nc1ccc(N)cc1)C(N)=Nc1ccc(N)cc1	inactive
C[C@@H]1CC[C@@H]2[C@@H]1[C@H](OC(=O)c1ccc3ccccc3c1)[C@]1(C3CCCCC3)C[C@@H](OC(=O)CO)[C@@]2(C)O1	inactive
CC(C)n1nc(C#Cc2cccc(O)c2)c2c(N)ncnc21	active
C(=C\c1nc2ccccc2[nH]1)/c1nc2ccccc2[nH]1	inactive
O=C1CSC(c2ccccc2Cl)N1c1nnc(Cn2cnnc2)o1 (stereo not given)	inactive
CCCCNC(=O)c1cc(NCc2cc(O)ccc2O)ccc1O	inactive
CN(C)CCOC(=O)Nc1ccc(Cl)cc1	inactive

Source of measurements: PubChem BioAssay (NCI)
